- assay.target: T1, 4H380-AA
- T1 chain: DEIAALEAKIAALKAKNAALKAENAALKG
- experiment: two-hybrid library CCmax;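 note: natural log of median RNA to DNA barcode read ratio; higher means stronger binding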
- experimental.context: mean of both orientations
So basically, if interaction score comes in under -1 it's true, and if it's -1 or more it's false.

[[record]]
binder = "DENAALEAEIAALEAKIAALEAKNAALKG [4H1064-AA]"
label_value = "false"

[[record]]
binder = "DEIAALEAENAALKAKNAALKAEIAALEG [4H249-AA]"
label_value = "true"

[[record]]
binder = "DKNAALKAEIAALEAKIAALEAENAALEG [4H3619-AA]"
label_value = "false"

[[record]]
binder = "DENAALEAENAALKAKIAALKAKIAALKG [4H1262-AA]"
label_value = "true"

[[record]]
binder = "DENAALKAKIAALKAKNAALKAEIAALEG [4H1913-AA]"
label_value = "true"

[[record]]
binder = "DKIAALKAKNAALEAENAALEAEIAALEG [4H2961-AA]"
label_value = "true"

